Origin of measurements: PubChem BioAssay AID588407

Tgt: Mu-type opioid receptor (Homo sapiens) + Delta-type opioid receptor (Homo sapiens) (UniProt P35372+P41143)
Sequence (P35372 whole entry, looked up): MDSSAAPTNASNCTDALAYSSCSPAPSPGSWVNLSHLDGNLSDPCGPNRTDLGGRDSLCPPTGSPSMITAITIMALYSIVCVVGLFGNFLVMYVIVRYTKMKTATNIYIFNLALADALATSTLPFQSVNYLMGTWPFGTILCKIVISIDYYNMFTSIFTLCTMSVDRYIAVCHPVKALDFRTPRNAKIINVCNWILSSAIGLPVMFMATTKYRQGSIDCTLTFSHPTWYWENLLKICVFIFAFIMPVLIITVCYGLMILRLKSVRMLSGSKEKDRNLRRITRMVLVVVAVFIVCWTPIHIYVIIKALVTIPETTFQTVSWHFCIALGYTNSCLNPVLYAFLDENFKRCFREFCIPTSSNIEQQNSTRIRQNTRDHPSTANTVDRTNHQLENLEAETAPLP
Sequence (P41143 whole entry, looked up): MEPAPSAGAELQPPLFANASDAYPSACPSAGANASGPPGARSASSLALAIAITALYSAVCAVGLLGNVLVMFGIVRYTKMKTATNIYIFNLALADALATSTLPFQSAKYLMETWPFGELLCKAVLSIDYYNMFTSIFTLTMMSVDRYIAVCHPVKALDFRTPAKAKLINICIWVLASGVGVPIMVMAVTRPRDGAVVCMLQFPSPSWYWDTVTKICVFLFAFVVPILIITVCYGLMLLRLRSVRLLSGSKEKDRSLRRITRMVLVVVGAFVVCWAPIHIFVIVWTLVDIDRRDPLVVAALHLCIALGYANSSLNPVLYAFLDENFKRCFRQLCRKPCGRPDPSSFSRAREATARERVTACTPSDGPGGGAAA
Test Details: OPRM1-OPRD1 heterodimer agonist potency – cell-based, luminescence, dose response (AID 588407);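 further: potency of agonists raising the heterodimer signal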
Test Parameters: cells, MOR-DOR heterodimerization
Active and inactive are the calls of the source. How the calls were made is not given here.
Choose one outcome from this list and give only that: Yes (active), No (inactive)

Exercise: Which result was noted for this compound in the test: COc1cccc(C(=O)Nc2ccc3c(c2)C(=O)c2ccccc2C3=O)c1
Key: Yes

Exercise: Which result was noted for this compound in the test: CN(C)C(CNC(=O)Cc1ccc([N+](=O)[O-])cc1)c1ccccc1 (stereo unspecified)
Key: Yes

Exercise: Which result was noted for this compound in the test: COC(=O)C1=C(C)N(CCCC(=O)O)C(=O)NC1c1ccccc1OS(=O)(=O)c1ccccc1[N+](=O)[O-] (stereo unspecified)
Key: Yes

Exercise: Which result was noted for this compound in the test: Cc1ccc(OCC(=O)Nc2ccc(NC(=O)c3cccs3)cc2)c(C)c1
Key: No

Exercise: Which result was noted for this compound in the test: CN(C)CCCN(C(=O)c1ccc(Br)s1)c1nc2cc3c(cc2s1)OCCO3
Key: No

Exercise: Which result was noted for this compound in the test: Cc1cc(N2CCN(c3ccc([N+](=O)[O-])c4cccnc34)CC2)c2ccccc2n1
Key: No

Exercise: Which result was noted for this compound in the test: CCOC(=O)C1(CC2CCCCO2)CCN(Cc2cc(F)ccc2-n2cccn2)CC1 (stereo unspecified)
Key: Yes

Exercise: Which result was noted for this compound in the test: COc1ccc(C(CNC(=O)/C=C/c2c(Cl)nc3ccccn23)N(C)C)cc1 (stereo unspecified)
Key: Yes

Exercise: Which result was noted for this compound in the test: Cc1ccc(NC(=O)c2ncn(CCCN[C@H](C)c3cccc4ccccc34)n2)cc1C
Key: Yes

Exercise: Which result was noted for this compound in the test: Cc1cccc(NC(=S)NCC(c2cccnc2)N(C)C)c1 (stereo unspecified)
Key: Yes

Exercise: Which result was noted for this compound in the test: COc1ccc(C(CNC(=O)CSc2ccccc2C)N(C)C)cc1 (stereo unspecified)
Key: Yes

----------
Tgt: Mu-type opioid receptor (Homo sapiens) + Delta-type opioid receptor (Homo sapiens) (UniProt P35372+P41143)
Test Details: OPRM1-OPRD1 heterodimer agonist potency – cell-based, luminescence, dose response (AID 588407);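 further: potency of agonists raising the heterodimer signal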
Test Parameters: cells, MOR-DOR heterodimerization
Calls of active or inactive are those of the source. The rule behind the calls is not given here.
Choose one outcome from this list and give only that: T for active, F for inactive

Exercise: Which result was noted for this molecule in the test: COc1ccc(NS(=O)(=O)c2ccc(O)c(NC(=O)c3cc4c(C)nn(-c5ccc(F)cc5)c4s3)c2)cc1
Key: F

Exercise: Which result was noted for this molecule in the test: Cc1ccc2c(C)c(C(=O)N(Cc3cccs3)C3CCS(=O)(=O)C3)oc2c1 (stereo not drawn)
Key: T

Exercise: Which result was noted for this molecule in the test: COc1cc(Br)cc(/C=N/NC(=O)Cc2ccc(C(F)(F)F)cc2[N+](=O)[O-])c1O
Key: F

Exercise: Which result was noted for this molecule in the test: OCC1(CCc2ccccc2)CCN(Cc2cc(F)ccc2-n2cccn2)CC1
Key: T

Exercise: Which result was noted for this molecule in the test: CCN(c1nc(N)c(C(=O)N=C(N)N)nc1Cl)C(C)C
Key: T

Exercise: Which result was noted for this molecule in the test: COc1ccc(C(C)NCCC(c2ccc(OC(C)C)cc2)c2ccccc2OC)cc1 (stereo not drawn)
Key: F

Exercise: Which result was noted for this molecule in the test: COc1cc2c3cc1Oc1cc(ccc1O)C[C@@H]1c4c(cc(OC)c(O)c4Oc4ccc(cc4)C[C@H]3N(C)CC2)CCN1C
Key: F

Exercise: Which result was noted for this molecule in the test: OCC1(CCc2ccccc2)CCN(Cc2ccccc2Cl)CC1
Key: T

Exercise: Which result was noted for this molecule in the test: Cc1ccc2nc(SC(C(=O)Nc3ccc(F)cc3)c3ccccc3)[nH]c2c1 (stereo not drawn)
Key: F

Exercise: Which result was noted for this molecule in the test: CN(C)C(CNC(=O)c1cc2ccccc2o1)c1ccco1 (stereo not drawn)
Key: F

Exercise: Which result was noted for this molecule in the test: O=C1C=C(c2c(O)ccc3ccccc23)c2ccccc2C1=O
Key: T

Exercise: Which result was noted for this molecule in the test: COc1ccc(-c2nc(CN3CCC(C(=O)NC4CCCc5ccccc54)CC3)c(C)o2)cc1OC (stereo not drawn)
Key: T

Exercise: Which result was noted for this molecule in the test: Cc1ccc(C2(O)CN(c3ccccc3)C3=[N+]2CCS3)cc1 (stereo not drawn)
Key: T

Exercise: Which result was noted for this molecule in the test: CCOC(=O)C1(c2ccccc2)CCN(CCC(=O)Nc2ccc(F)cc2)CC1
Key: T

Exercise: Which result was noted for this molecule in the test: CN1CCN(c2ccc(NC(=O)c3ccc(-c4ccc(Br)cc4)o3)cc2)CC1
Key: T

Exercise: Which result was noted for this molecule in the test: Cc1cc(Cl)ccc1OCC(=O)N[C@@H](Cc1ccccc1)c1nc2ccccc2[nH]1
Key: F

Exercise: Which result was noted for this molecule in the test: CCOc1ccc(S(=O)(=O)Nc2cccc(C(=O)NCC(c3ccccc3)N(C)C)c2)cc1 (stereo not drawn)
Key: T

Exercise: Which result was noted for this molecule in the test: CC(CC(=O)N(CCC1=CCCCC1)c1c(N)n(Cc2ccccc2)c(=O)[nH]c1=O)c1ccccc1 (stereo not drawn)
Key: F

Exercise: Which result was noted for this molecule in the test: CN(C(=O)Cc1ccc(Cl)c(Cl)c1)C(CN1CCCC1)c1cccc(OCC(=O)O)c1 (stereo not drawn)
Key: F

Exercise: Which result was noted for this molecule in the test: CCOC(=O)C1(CCOc2ccccc2)CCN(Cc2ccc(C)s2)CC1
Key: F

Exercise: Which result was noted for this molecule in the test: CCOC(=O)C1(CCCc2ccccc2)CCN(Cc2cnn(C)c2)CC1
Key: T

Exercise: Which result was noted for this molecule in the test: Clc1ccc2c(N/N=C/c3ccccc3Br)ccnc2c1
Key: T

Exercise: Which result was noted for this molecule in the test: CCn1cc(CNCc2cn(-c3ccccc3C)nc2-c2ccc(OC)c(F)c2)cn1
Key: T

Exercise: Which result was noted for this molecule in the test: COC(=O)C(Cc1cccc(C)n1)(c1ccccc1)c1ccccc1
Key: T

Exercise: Which result was noted for this molecule in the test: CCOC(=O)C1(CCOc2ccccc2)CCN(Cc2cccn2-c2cccnc2)CC1
Key: T

Exercise: Which result was noted for this molecule in the test: CN(C)C(CNC(=O)c1cccc(C(F)(F)F)c1)c1ccco1 (stereo not drawn)
Key: F

Exercise: Which result was noted for this molecule in the test: CCc1ccc(NC(=O)Nc2ccc3c(c2)N(C)C(=O)CS3)cc1
Key: T

Exercise: Which result was noted for this molecule in the test: CN1CCN(Cc2nc3ccccc3c(=O)n2Cc2nc(-c3ccc4ccccc4c3)cs2)CC1
Key: F
